Reported pEC50 values for a set of molecules
- Tested on: CcOctβ1R
- Construct: gene Octβ1R; full-length ORF, 417 residues; pcDNA3.0 vector with hemagglutinin A tag
- assay-text: cAMP production in stable CHO-K1 cells (cAMP immunoassay)
- Format: cell-based, Cotesia chilonis
- condition: agonist; 100 μM IBMX; 25 °C
Worth noting: pEC50 values are minus log10 of concentrations stated in mol/L.

[[record]]
query_smiles = "CN=CNc1ccc(C)cc1C"
metric_name = "pEC50"
val = 8.03

[[record]]
query_smiles = "c1ccc2c(CC3=NCCN3)cccc2c1"
metric_name = "pEC50"
val = 9.64

[[record]]
query_smiles = "Cc1ccc(/N=C/N(C)/C=N/c2ccc(C)cc2C)c(C)c1"
metric_name = "pEC50"
val = 7.78


Please look at the following molecule next.
Lab note: measured pEC50 of NC[C@H](O)c1ccc(O)cc1 was 7.41

----------
- System: CcOctβ1R
- Construct: gene Octβ1R
- condition: read-out: CcOctβ1R / IC50; antagonist; non-saturating OA (100 nM); 100 μM IBMX; 25 °C
metric-name: pIC50
Worth noting: pIC50 values are minus log10 of concentrations stated in mol/L.

// assay CcOctβ1R, entry NC1=NCC2c3ccccc3Cc3ccccc3N12 (stereo not shown) [Epinastine] , pIC50 value = 7.42

----------
- Tested on: CcOctβ3R
- Construct: gene Octβ3R; full-length ORF, 358 residues; pcDNA3.0 vector with hemagglutinin A tag
- assay-text: cAMP production in stable CHO-K1 cells (cAMP immunoassay)
- Type: cell-based, Cotesia chilonis
- condition: agonist; 100 μM IBMX; 25 °C
metric-name: pEC50
Worth noting: pEC50 values are minus log10 of concentrations stated in mol/L.

Some molecules with recorded pEC50:
[[record]]
query_smiles = "NC[C@H](O)c1ccc(O)cc1"
target_or_system = "CcOctβ3R"
val = 7.47

[[record]]
query_smiles = "c1ccc2c(CC3=NCCN3)cccc2c1"
target_or_system = "CcOctβ3R"
val = 8.30


Please look at the following molecule next.
Lab note: measured pEC50 of CN=CNc1ccc(C)cc1C was 8.36
